test: Biodistribution / brain delivery of drug in mice after intravenous drug-loaded nanoparticles; assay type: in vivo; details: mouse, BMS, 12 mg/kg intravenously through tail vein in mice, HPLC, mean±SD (n=6), read-out: drug levels in the brain
measure name: concentration at 1 h (ng/g)
Write it as a number; the unit ng/g goes unstated.

[in] Entry Cc1noc(NS(=O)(=O)c2cccc3c(N(C)C)cccc23)c1C [solution control, BMS 182874] has what concentration at 1 h?
[out] 2360
